Where a SMILES comes first, the peptide text is derived from it.
# note: exactly 2 is not below, so it is criterion not met; use criterion met for logP strictly under it

Q. Does this molecule meet the criterion logP < 2? CNC1CCc2c(OC)cccc2C1C (configuration not stated)
A. criterion not met

Q. Quick check: does O=c1ccc2ccc3occc3c2s1 have logP under 2?
A. criterion not met

Q. Dear colleague, could you confirm whether logP of CCC(C)C(N)C(=O)N1CCCC1C(=O)O (stereo not drawn) (H-Ile-Pro-OH; configuration not given here) falls below 2? Thanks.
A. criterion met

Q. Determine whether this molecule shows logP lower than 2 (ties excluded): COc1ccc(CCNCC(O)COc2ccc(-c3nc(CN4CCOCC4)c[nH]3)cc2)cc1OC (configuration not stated)
A. criterion not met

Q. Below 2 on logP? Entry CCOC(=O)C1=C(C)NC(C)=C(C(=O)OC)C1c1cc(OC)c(O)c(OC)c1 (configuration not stated)
A. criterion not met

Q. Confirm or reject: logP of Nc1cccc(Nc2ccccc2C(=O)O)c1 lies strictly below 2
A. criterion not met

Q. Just wondering, is logP of NC(=O)c1c(O)cccc1O below 2?
A. criterion met

Q. Does Cc1c(C)c2ccc3occc3c2oc1=O have logP strictly under 2?
A. criterion not met

Q. Lab note: logP threshold 2. Does this molecule come in strictly under it? Nc1ccno1
A. criterion met

Q. # check: logP < 2 for O=C(O)CCCCON=C(c1cncnc1)c1cccc(C(F)(F)F)c1
A. criterion not met

Q. Given the entry Clc1cc2c(cc1Cl)Oc1c(Cl)c(Cl)cc(Cl)c1O2 , would its reported logP be below 2?
A. criterion not met

Q. Find out if reported logP for COC(=O)c1c(Oc2nc(OC)cc(OC)n2)cccc1C(C)=NOCCCl is less than 2
A. criterion not met

Q. Item OC(CNCCCc1ccccc1)CON=C(C1CC1)C1CC1 (configuration not stated) : logP beneath 2, strictly?
A. criterion not met

Q. In the record for Cc1cccc(C)c1/C=C/c1c[nH]cn1 , is logP less than 2?
A. criterion not met

Q. Please determine if CC(C)c1cccc(C(C)C)c1NC(=O)CC(=O)C1(c2ccccc2)CCCC1 is below 2 in terms of logP.
A. criterion not met

Q. Given the entry O=C(O)CCCCON=C(c1ccccc1)c1ncccn1 , would its reported logP be below 2?
A. criterion met

Q. Dear colleague, could you confirm whether logP of NC(Cc1ccc(Cl)cc1)C(=O)O (configuration not stated) falls below 2? Thanks.
A. criterion met

Q. Identify whether the molecule c1ccc(Nc2ncnc3nc[nH]c23)cc1 records logP below 2.
A. criterion not met

Q. Record COc1ccc(C2Cc3c(ccc(Br)c3OC)N(CCN(C)C)C(=O)C2C)cc1 (configuration not stated) : is its logP strictly below 2?
A. criterion not met

Q. Consider the molecule CCCCCCCCNC1=NS(=O)N=C1NCCSCc1ccc(CN(C)C)o1 (configuration not stated) . Is its logP strictly less than 2?
A. criterion not met

Q. # strict comparison: is reported logP < 2? input = CN1CC(O)N(C(=O)NC2CCCCCC2)C1=O (configuration not stated)
A. criterion not met

Q. Could you please tell me whether logP recorded for CCCNC(=O)N1C(=O)N(C)CC1O (configuration not stated) is less than 2?
A. criterion met

Q. I wonder whether COc1ccc(C2Cc3c(OC)cccc3N(CCN(C)C)C(=O)C2OC(C)=O)cc1 (configuration not stated) has logP below 2. Can you tell?
A. criterion not met

Q. API: query returns whether the molecule falls strictly under 2 in logP. Query: O=C(Nc1ccccc1)NC1CC(C(=O)O)Nc2cc(Cl)cc(Cl)c21 (configuration not stated)
A. criterion not met

Q. Is 2 strictly greater than the molecule's reported logP? molecule: CC(C)CC(NC(=O)C(N)Cc1c[nH]c2ccccc12)C(=O)NC(CC(C)C)C(=O)NC(C(=O)O)C(C)C (configuration not stated) (H-WLLV-OH; configuration not given here)
A. criterion met

Q. logP under 2? Item: Fc1ccc(CNc2[nH]cnc3ncnc2-3)cc1
A. criterion not met
